// data source = patent US20250206761A1

# Tested on: NCI-H358 (ATCC-CRL5807) cells
# Assay Comment: Cell viability assay, G12C (NCI-H358)
# Assay type: cell-based, human
# Cond: Homo sapiens; KRAS cell viability, NCI-H358, 72 hrs, Cell Counting Kit-8
Measurement Type: pIC50
Recall that pIC50 is obtained by taking minus log10 of the concentration measured in molar.

Here's what some known entries look like.
CO[C@@H](C)c1ncc(N2CCN(C)CC2)cc1-c1c2c3cc(c(F)cc3n1CC(F)(F)F)-c1csc(n1)C[C@H](NC(=O)[C@H](C(C)C)N1CC[C@]3(CCN(C(=O)[C@H](F)Cl)C3)C1=O)C(=O)N1CCC[C@H](N1)C(=O)OCC(C)(C)C2 (atropisomer, axis not shown; (M)) | 8.70
CO[C@@H](C)c1ncc(N2CCN(CC(F)(F)F)CC2)cc1-c1c2c3cc(c(F)cc3n1CC(F)(F)F)-c1csc(n1)C[C@H](NC(=O)[C@H](C(C)C)N(C)C(=O)[C@H]1CCN(C(=O)[C@H](F)Cl)C1)C(=O)N1CCC[C@H](N1)C(=O)OCC(C)(C)C2 (atropisomer, axis not shown; (M)) | 9.00
CO[C@@H](C)c1ncc(N2CCN(C)CC2)cc1-c1c2c3cc(c(F)cc3n1CC(F)(F)F)-c1csc(n1)C[C@H](NC(=O)[C@H](C(C)C)N1CC[C@@]3(CCN(C(=O)[C@H](F)Cl)C3)C1=O)C(=O)N1CCC[C@H](N1)C(=O)OCC(C)(C)C2 (atropisomer, axis not shown; (M)) | 8.70

Please examine the following record next.
Field pIC50 (entry CO[C@@H](C)c1ncc(N2CCOCC2)cc1-c1c2c3cc(c(F)cc3n1CC(F)(F)F)-c1csc(n1)C[C@H](NC(=O)[C@H](C(C)C)N1CC[C@]3(CCN(C(=O)[C@H](F)Cl)C3)C1=O)C(=O)N1CCC[C@H](N1)C(=O)OCC(C)(C)C2 (atropisomer, axis not shown; (M)) ) reads 8.52
